Entry source: the Human Domainome abundance scans (Beltran et al. 2025)

B1: Gamma-crystallin D, residues 90 to 170; numbered along this chain, P07320 (parent)
chain: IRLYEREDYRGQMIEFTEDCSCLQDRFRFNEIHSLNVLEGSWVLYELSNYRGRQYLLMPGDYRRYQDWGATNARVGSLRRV

- Variants of: B1
- procedure_text: abundance fitness (aPCA) (normalised: wild type 0, dead -1); higher = more abundant; growth selection in yeast, the domain comes from the species named
- measurement_parameters: Homo sapiens
attribute_measured: abundance fitness

In [3]: df
Out[3]:
    variant_descriptor  attribute_measured  recorded_value
 0                 E5A   abundance fitness          -0.086
 1                L47S   abundance fitness           0.074
 2                H33V   abundance fitness            0.04
 3                 Y9S   abundance fitness           0.175
 4                G52R   abundance fitness           -0.51
 5                W42D   abundance fitness              -1
 6                 L3R   abundance fitness           -1.02
 7                L23R   abundance fitness          -0.332
 8                G52C   abundance fitness          -0.421
 9                 E7F   abundance fitness          -0.148
10                E46V   abundance fitness          -0.325
11                R28H   abundance fitness           -0.32
12                L56C   abundance fitness           0.048
13                S21Y   abundance fitness           0.069
14                Y45Q   abundance fitness          -0.395
15                E46R   abundance fitness          -0.273
16                 I1M   abundance fitness          -0.021
17                N49T   abundance fitness          -0.561
18                C22S   abundance fitness           0.015
19                R26E   abundance fitness           0.047
20                L57K   abundance fitness          -0.173
21                S34Y   abundance fitness          -0.893
22                F27E   abundance fitness           0.065
23                Y50H   abundance fitness          -0.052
24                C20W   abundance fitness           0.056
25                R53V   abundance fitness          -0.056
26                R51G   abundance fitness           0.064
27                E18T   abundance fitness          -0.035
28                Y45M   abundance fitness          -0.401
29                V43N   abundance fitness          -0.157
30                L35S   abundance fitness          -0.035
31                Y55F   abundance fitness          -0.044
32                N36M   abundance fitness          -0.112
33                V37P   abundance fitness           0.153
34                V43H   abundance fitness          -0.129
35                L56S   abundance fitness            0.14
36                G40C   abundance fitness          -0.039
37                 E7W   abundance fitness           0.045
38                R51I   abundance fitness          -0.321
39                 E5Q   abundance fitness          -0.013
40                E39H   abundance fitness           0.165
41                E15D   abundance fitness          -0.166
42                Y45S   abundance fitness          -0.157
43                E15V   abundance fitness          -0.118
44                M13D   abundance fitness           0.034
45                L23W   abundance fitness          -0.215
